Tested on: HeLa
Method Summary: Antiproliferative activity against human HeLa cells assessed as reduction in cell viability measured after 72 hrs
Assay type: functional, cell-based
pIC50: −log10 of the molar value.
Readout Kind: pIC50

A = COc1cccc(-c2cc(NCc3ccc4[nH]ccc4c3)nc(N)n2)c1
B = Nc1nc(NCc2ccc3c(c2)OCO3)cc(-c2ccc3c(c2)OCCO3)n1
C = Nc1nc(NCc2ccc3c(c2)OCO3)cc(-c2ccc3c(c2)OCO3)n1
Lookup: Reorder the records above by pIC50 so that values decrease. Submit the labels in the order that the ranking request calls for.
Found: A, C, B
(A: 7.30, C: 6.74, B: 6.28)
